Values were extracted from ChEMBL document CHEMBL4145615.

system: Mycobacterium tuberculosis; assay: Antimycobacterial activity against Mycobacterium tuberculosis H37Rv ATCC 27294 after 7 days by broth dilution method; format: functional; conditions: H37Rv ATCC 27294, 168 h
Mark rule met only for MIC90 values smaller than 0.8 µM; exact matches and larger values are rule not met.

>>> group_label("CCCCCCCCn1cc(CN2CCC3(CC2)SCCS3)c2ccc(OC)cc21")
"rule not met"
>>> group_label("CCCCCCCCn1cc(CN2CCC3(CC2)OCCS3)c2ccc(OC)cc21")
"rule not met"
>>> group_label("CCCCCCCCn1cc(CN2CCC3(CC2)OCCCO3)c2ccc(OC)cc21")
"rule met"
>>> group_label("CCCCCCCCn1cc(CN2CCC3(CC2)OCCO3)c2ccc(OC)cc21")
"rule not met"

###

# HC50 at 1 h per entry
experiment: Hemolytic activity against human RBC after 1 hr; assay type: ADME, cell-based, Erythrocyte; conditions: red blood cells (erythrocytes)
assay metric: HC50 at 1 h

>>> result("CCCCCCCCn1cc(CN2[C@H]3CCC[C@@H]2CCC3)c2ccc(OC)cc21")
"109 µM"
>>> result("CCCCCCCCn1cc(CN2CCOC3(CCCOC3)C2)c2ccc(OC)cc21 (configuration not stated)")
"> 300 µM"
>>> result("CCCCCCCCn1cc(CN2CCC3(CC2)SCCCS3)c2ccc(OC)cc21")
"> 300 µM"
>>> result("CCCCCCCCn1cc(CN2CCC3(CC2)OCCCO3)c2ccc(OC)cc21")
"64 µM"
>>> result("CCCCCCCCn1cc(CN2CC(c3ccccc3)C2)c2ccc(OC)cc21")
"> 300 µM"
>>> result("CCCCCCCCn1cc(CNCC2CC3CCC2C3)c2ccc(OC)cc21 (configuration not stated)")
"19 µM"
>>> result("CCCCCCCCn1cc(CN2CCC3(CC2)OC[C@@H](C)O3)c2ccc(OC)cc21")
"75 µM"
>>> result("CCCCCCCCn1cc(CN2CCC3(CC2)OCCCO3)c2cccc([N+](=O)[O-])c21")
"> 300 µM"
>>> result("CCCCCCCCn1cc(CN2CCCC3(CC2)OCCS3)c2ccc(OC)cc21 (configuration not stated)")
"> 300 µM"
>>> result("CCCCCCCCn1cc(CN2CCC3(CC2)OCCO3)c2ccc([N+](=O)[O-])cc21")
"> 300 µM"
>>> result("CCCCCCCCn1cc(CN2CCC3(CC2)OCCCO3)c2ccc([N+](=O)[O-])cc21")
"> 300 µM"
>>> result("COc1ccc2c(CN3CCC4(CC3)OCCCO4)cn(CCCOc3ccc(C)c(C)c3)c2c1")
"> 300 µM"

###

assay: Ratio of drug level in CD1 mouse lung to plasma at 25 mg/kg, po administered as single dose measured at 5 hrs post dose by LC/MS-MS analysis; assay type: ADME, organism-based
assay metric: Kp at 5 h

>>> result("CCCCCCCCn1cc(CN2CCC3(CC2)OCCCS3)c2ccc(OC)cc21")
28.9
>>> result("CCCCCCCCn1cc(CN2CCC3(CC2)OCCO3)c2ccc(OC)cc21")
14.2

###

assay: Hemolytic activity against human RBC after 1 hr; assay type: ADME, cell-based, Erythrocyte; details: red blood cells (erythrocytes)
# HC50 at 1 h per entry
assay metric: HC50 at 1 h (µM)

>>> result("CCCCCCCCn1cc(CN2CCC3(CC2)OCCO3)c2ccc(OC)cc21")
75
>>> result("CCCCCCCCn1cc(CN2CCC3(CC2)OCCO3)c2ccc(OCCC)cc21")
31
>>> result("CCCCCCCCn1cc(CNC2CCC3(CC2)OCCO3)c2ccc(OC)cc21")
207
